Quick reference: IC50 of the listed items.
system: L929; assay: Antiproliferative activity against mouse L929 cells by MTT assay; type: functional, cell-based
readoutType: IC50

In [3]: df
Out[3]:
                                    compound  measuredvalue
 0  C[C@H]1[C@H](O[Si](c2ccccc2)(c2ccccc2)C(C)(C)C)C[C@]2(C)CC3(C[C@]12C)OCC(C)(C)CO3        15.8 µM
 1  O[C@@H]1[C@H]2CCC3(OCCO3)[C@H]2C[C@@H]1O     > 40 µg/mL
 2  CCC(=O)O[C@@H]1C[C@@H]2CC3(C[C@@H]2C1)OCC(C)(C)CO3       > 142 µM
 3  C#CC(=O)O[C@H]1C[C@@H]2CC3(C[C@@H]2C1)OCC(C)(C)CO3         2.2 µM
 4           O=C1C[C@@H]2C[C@H](O)C[C@@H]2C1     > 40 µg/mL
 5  CC(C)(C)[Si](OC1CCCCC1)(c1ccccc1)c1ccccc1       40 µg/mL
 6  O=C1CC(CCCCO)[C@H]2CCC3(OCCO3)[C@@H]12 (some centres undefined)     > 40 µg/mL
 7  C[C@H]1C(=O)C[C@]2(C)CC3(C[C@]12C)OCC(C)(C)CO3       > 150 µM
 8  CC1(C)COC2(CC[C@@H]3[C@@H](O)[C@H](O)C[C@@H]32)OC1     > 40 µg/mL
 9  CC1(C)COC2(C[C@H]3C[C@H](O)C[C@H]3C2)OC1     > 40 µg/mL
10  CC1(C)COC2(C[C@H]3C[C@@H](CO)C[C@H]3C2)OC1     > 40 µg/mL
11  CC(C)(C)[Si](O[C@H]1[C@H]2CCC3(OCCO3)[C@H]2C[C@@H]1O)(c1ccccc1)c1ccccc1        38.8 µM
12  BrC1C[C@H]2[C@H](CC(Br)C23OCCO3)C12CCCC2 (some centres undefined)     > 40 µg/mL
13  CC(C)(C)[Si](OC1CCCCCC1)(c1ccccc1)c1ccccc1       40 µg/mL
14           CC(C)[Si](OC1CCCC1)(C(C)C)C(C)C         111 µM
15  CC(C)=CC[C@H]1C(=O)C[C@@H]2[C@@H](C)[C@H](O[Si](c3ccccc3)(c3ccccc3)C(C)(C)C)C[C@@H]21        23.9 µM
16  C[C@H]1[C@H](O[Si](c2ccccc2)(c2ccccc2)C(C)(C)C)C[C@]2(C)CC(=O)C[C@]12C        14.3 µM
17  C=CC[C@@H]1[C@H]2C=C[C@H](C)[C@H]2C[C@H]1O[Si](c1ccccc1)(c1ccccc1)C(C)(C)C        20.4 µM
18  Cc1ccc(S(=O)(=O)N/N=C2/C[C@@H]3CC4(C[C@@H]3C2)OCC(C)(C)CO4)cc1     > 40 µg/mL
